Record form. Attribute: log10(Ki). Fill in for each entry.
# Study system: delta opioid receptor (Rattus norvegicus, UniProt P33533)
# Construct: the forebrains were homogenized in Tris buffer in a Teflon®-glass homogenizer; from tissue; host or cells: forebrain of male Wistar rats, particulate (membrane) preparation
# Sequence (P33533 whole entry): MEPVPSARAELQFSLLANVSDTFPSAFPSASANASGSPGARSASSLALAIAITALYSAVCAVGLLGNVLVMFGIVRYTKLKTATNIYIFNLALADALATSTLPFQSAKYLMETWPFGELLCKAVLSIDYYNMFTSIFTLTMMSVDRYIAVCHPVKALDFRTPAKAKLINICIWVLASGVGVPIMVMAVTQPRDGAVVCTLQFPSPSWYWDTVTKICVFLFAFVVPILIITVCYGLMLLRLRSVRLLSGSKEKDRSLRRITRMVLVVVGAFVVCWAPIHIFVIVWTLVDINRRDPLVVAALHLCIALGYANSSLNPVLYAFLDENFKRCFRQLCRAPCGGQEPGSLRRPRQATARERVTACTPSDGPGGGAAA
# Run description: Rat brain delta opioid receptor binding assay
# Measurement context: rat forebrain, [3H]naltrindole ligand; read-out: δ-binding (Naltrindole ligand) Ki
Field: value | Transform: log10 | Quantity: Ki | Unit: nM

Solved entries (count: 5):
| Compound | log10(Ki) |
| --- | --- |
| COc1ccc(Oc2nc(-c3cn[nH]c3)ncc2NC[C@@H]2CCCN2)cc1 | 0.48 |
| COc1ccc(Oc2nc(-c3cncc(S(C)(=O)=O)c3)ncc2NC[C@@H]2CCCN2)cc1 | 2.03 |
| COc1ccc(Oc2nc(-c3cncnc3)ncc2NC[C@@H]2CCCN2)cc1 | 0.10 |
| COc1ccc(Oc2nc(-c3cccc4cc[nH]c34)ncc2NC[C@@H]2CCCN2)cc1 | 3.60 |
| COc1ccc(Oc2nc(-c3ccsc3)ncc2NC[C@@H]2CCCN2)cc1 | 0.00 |

// each listed compound needs a value for log10(Ki)
1. COc1ccc(Oc2nc(-c3ccc4ccccc4c3)ncc2NC[C@@H]2CCCN2)cc1
2. COc1ccc(-c2ncc(NC[C@@H]3CCCN3)c(Oc3ccc(N)cc3)n2)cn1
3. Cc1nc2ccc(Oc3nc(-c4cncc(C#N)c4)ncc3NC[C@@H]3CCCN3)cc2s1
4. COc1ccc(Oc2nc(-c3cncnc3)ncc2NCC2COCCN2)cc1 (racemic)

Output:
2.06
0.60
1.15
3.00

// input: 5 compounds below; output: log10(Ki) for each
1. COc1ccc(Oc2nc(-c3ccncc3)ncc2NC[C@@H]2CCCN2)cc1
2. COc1ccc(Oc2nc(-c3cncc(C#N)c3)ncc2NC[C@H]2COCCN2)cc1
3. N#Cc1cncc(-c2ncc(NC[C@@H]3CCCN3)c(Oc3ccc(OCC(F)(F)F)cc3)n2)c1
4. COc1ccc(Oc2nc(-c3cnccn3)ncc2NC[C@@H]2CCCN2)cc1
5. COc1ccc(Oc2nc(-c3ccc(-c4ccccc4)cc3)ncc2NC[C@@H]2CCCN2)cc1

Output:
1: 1.11; 2: 0.78; 3: 2.09; 4: 2.02; 5: 2.30

// each compound listed below needs its log10(Ki)
1. COc1ccc(Oc2nc(-c3cccc(N)c3)ncc2NC[C@@H]2CCCN2)cc1
2. COc1ccc(Oc2nc(-c3cncnc3)ncc2NCC2CNCCO2)cc1 (stereo not drawn)
3. COc1ccc(Oc2nc(-c3noc(=O)[nH]3)ncc2NC[C@@H]2CCCN2)cc1
4. COc1ccc(Oc2nc(-c3cnc(O)nc3O)ncc2NC[C@@H]2CCCN2)cc1

Output:
[1.04, 1.51, 2.26, 3.41]

---

# Study system: delta opioid receptor (Mus musculus, UniProt P32300)
# Construct: NG108-15 cell membranes were purchased from Applied Cell Sciences (Rockville, Md.); host or cells: NG108-15 cell membranes
# Sequence (P32300 whole entry): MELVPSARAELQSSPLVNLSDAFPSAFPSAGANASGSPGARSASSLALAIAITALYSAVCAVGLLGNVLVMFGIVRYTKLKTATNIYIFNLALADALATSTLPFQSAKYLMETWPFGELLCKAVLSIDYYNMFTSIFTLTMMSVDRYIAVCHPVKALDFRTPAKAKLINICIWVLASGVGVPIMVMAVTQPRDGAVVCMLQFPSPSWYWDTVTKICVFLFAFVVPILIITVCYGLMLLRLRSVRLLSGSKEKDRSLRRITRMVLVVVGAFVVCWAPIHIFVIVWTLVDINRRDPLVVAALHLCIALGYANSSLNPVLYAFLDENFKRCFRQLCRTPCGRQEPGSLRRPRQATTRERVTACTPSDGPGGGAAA
# Run description: [35S]GTPγS binding assay in NG108-15 cell membranes (delta opioid functional assay), 200 nM screen
# Assay type: biochemical
# Measurement context: relative efficacy from dose response; NG108-15 cell membranes
Readout name: GTPγS δ-opioid receptor Rel Efficacy
Numbers only.

The examples below pair each entry with its known result.
| Cpd smiles | Assay value |
| --- | --- |
| COc1cncc(-c2ncc(NC[C@@H]3CCCN3)c(Oc3ccccc3Cl)n2)c1 | 1.021 |
| CSc1cncc(-c2ncc(NC[C@@H]3CCCN3)c(Oc3cccc(OC(C)=O)c3)n2)c1 | 1.084 |
| COc1ccc(Oc2nc(-c3cncc(C#N)c3)ncc2N2CC3CC(C2)N3)cc1 | 0.956 |

Okay, next one:
Task: Can you look up the measured GTPγS δ-opioid receptor Rel Efficacy of COc1ccc(Oc2nc(-c3cncc(C#N)c3)ncc2NC[C@H]2C[C@H](N)C2)cc1 for me?
Output: 1.085
